Quick reference for pIC50 among some compounds
# studyTarget: MEK
# procedureDetails: affinity (binding affinities) of the MEK inhibitors
# runParameters: affinity of the MEK inhibitors tested in the CCI model
As a rule, pIC50 stands for the negative log10 of the concentration, concentration in M.

Measured pIC50, `NS(=O)(=O)c1cc(C(=O)NOCC2CC2)c(Nc2ccc(I)cc2Cl)c(F)c1F` : 7.00

The measured pIC50 associated with `O=S(=O)(NOCC1CC1)c1ccc(F)c(F)c1Nc1ccc(I)cc1Cl` reads 6.02

Measured values drawn from patent EP1202724B1 for this set.
